# System: SF-268 CNS
# assay comment: NCI-60 one-dose screen, 48 h
# settings: 10 µM unless noted
This is part of a sample that, as a whole, favours compounds with a hit. Of some 83,000 tested, about 20% had one in any assay. Activity calls are given as the source filed them. How the source made its calls: active means growth percent below 10; inactive means the rest.
Select the correct class. Options are yes (1) for active, no (0) for inactive and nothing else.

Below, 3 molecules whose answers are already recorded.
Qu. How did this test come out for C=CCCCCCCCCC(=O)OC(C)C ?
Ans. no (0)

Qu. Please give the result for CCN(CC)CC(C)Nc1ccc(C)c2sc3ccccc3c(=O)c12 (stereo not given) too.
Ans. no (0)

Qu. Please give the result for CC1(C)C(=O)/C(=C\c2ccco2)C[C@]2(C)[C@H]3CC=C4[C@@H]5C[C@](C)(C(=O)O)CC[C@]5(C)CC[C@@]4(C)[C@]3(C)CC[C@@H]12 too.
Ans. yes (1)

Others:
Qu. How did this test come out for Cc1cc(C)c(O)c(CNCCCCCCNCc2cc(C)cc(C)c2O)c1 ?
Ans. no (0)

Qu. Please give the result for CC(C)c1ccc(C(=O)Nc2sc3c(c2C#N)CCC(=O)C3)cc1 too.
Ans. no (0)

Qu. Please give the result for COC(=O)[C@@H](NC(=O)NC(=O)NC(=O)CI)C(C)C too.
Ans. no (0)

Qu. Please give the result for COc1cccc(-c2[nH]c(=S)ncc2C(=O)c2ccccc2)c1 too.
Ans. no (0)

Qu. Please give the result for COc1ccc(C2=C(c3cn(C)c4ccccc34)C(=O)OC2)cc1OC too.
Ans. no (0)

----------
# Test system: T-47D breast
# assay comment: NCI-60 one-dose screen, 48 h (100 = growth as untreated, 0 = no growth, -100 = all killed)
# settings: 10 µM unless noted
The panel holds about 83,000 compounds, 20% with a hit somewhere; the sample as a whole holds those more often.
Kindly supply the reported growth values for the records listed here.
Answers are plain numbers, in %.

Consider the reported growth for these molecules:
Qu. Please report the recorded growth for C=C(C)C1CCC2(C(=O)O)CCC3(C)C(CCC4C5(C)CCC(OC(=O)NCc6ccccc6)C(C)(C)C5CCC43C)C12 (centres undefined) .
Ans. 33.9

Qu. Please give the result for COc1cc(NCc2ccccc2O)c2ncccc2c1 too.
Ans. 90.4

Qu. Please give the result for Nc1ccc(NC(=O)c2ccccc2)c2c1C(=O)c1ccccc1C2=O too.
Ans. 107

Others:
Qu. Please report the recorded growth for C[C@@H](NC(=O)[C@@H](CC(=O)N1CCC(N2CCCCC2)CC1)N1C(=O)[C@@H](N2C(=O)OC[C@@H]2c2ccccc2)[C@H]1/C=C/c1cccc(Cl)c1)c1ccccc1 .
Ans. 29.9

----------
# Test system: OVCAR-8 ovarian
# assay comment: NCI-60 one-dose screen, 48 h (100 = growth as untreated, 0 = no growth, -100 = all killed)
# settings: 10 µM unless noted
Compounds without any hit were thinned out: in the full panel of roughly 83,000, 20% have a hit.
measured quantity: growth (%)
Give bare numbers, in %.

Qu. Please report the recorded growth for CCN(CC)CCCNCc1cc(-c2ccccc2)nc2ccccc12 .
Ans. 35.1

Look up growth for the entries below, preserving their order.
1. O=C(CCCCCCSc1nc(-c2ccc(Cl)cc2)cc(-c2ccc(Cl)cc2)n1)NO
2. CCCCCCCCCCCCCCCCCCNC(=S)N/N=C/c1ccc(OC)c(OC)c1
3. CC/C=C(\C)C(CCC)(CN=O)C(=O)OCC (stereo unspecified)
4. O=C(NCc1ccc(Cn2c(=O)sn(-c3ccccc3)c2=O)cc1)OCc1ccc2c(Br)cc(Br)c(O)c2n1

Ans.
20.5
101
105
0.865

Qu. Please report the recorded growth for CCOc1cc(NC(=O)c2ccccc2)c(OCC)cc1N .
Ans. 113
